Entries and their CC50 at 24 h values follow.
Experiment: in vitro
Settings: human
Positions of bridges follow the written chain, without caps; N, C: chain ends. Non-standard residues stand in square brackets, D forms with d. Residues, ends and D or L forms follow the SMILES beside them. *: point of attachment. Decanoyl(3R-OH) = CCCCCCC[C@@H](O)CC(=O)*; dBip = N[C@H](Cc1ccc(-c2ccccc2)cc1)C(=O)O; dDab = NCC[C@@H](N)C(=O)O; Dab = NCC[C@H](N)C(=O)O

compound	CC50 at 24 h
CCCCCCC[C@@H](O)CC(=O)N[C@H](CCN)C(=O)N[C@H]1CCNC(=O)[C@H](CC(=O)O)NC(=O)[C@H](CCN)NC(=O)[C@H](CCN)NC(=O)[C@H](CC(C)C)NC(=O)[C@@H](Cc2ccccc2)NC(=O)[C@H](CCN)NC1=O [compound 6513] ({Decanoyl(3R-OH)}-[dDab][Dab][Dab][dF]L[Dab][Dab]D; lactam 2-C)	> 300 µM
CCCCCCC[C@@H](O)CC(=O)N[C@H](CCN)C(=O)N[C@H]1CCNC(=O)[C@H](CC(C)C)NC(=O)[C@H](CCN)NC(=O)[C@H](CCN)NC(=O)[C@H](CC(C)C)NC(=O)[C@@H](Cc2ccc(-c3ccccc3)cc2)NC(=O)[C@H](CCN)NC1=O [compound 5010] ({Decanoyl(3R-OH)}-[dDab][Dab][Dab][dBip]L[Dab][Dab]L; lactam 2-C)	75 µM
CCCCCCC[C@@H](O)CC(=O)N[C@H](CCN)C(=O)N[C@H]1CCNC(=O)[C@H](C)NC(=O)[C@H](CCN)NC(=O)[C@H](CCN)NC(=O)[C@H](CC(C)C)NC(=O)[C@@H](Cc2ccccc2)NC(=O)[C@H](CCN)NC1=O [compound 4943] ({Decanoyl(3R-OH)}-[dDab][Dab][Dab][dF]L[Dab][Dab]A; lactam 2-C)	> 300 µM

---

Test: In vitro nephrotoxicity, LDH release from primary human kidney cells
Format: cell-based
Conditions: pH 7.4
Starred links: 1 amine or outer side, 2 acyl side, 3 side chain; linkers in the order of their positions; H or OH if unused. Positions of bridges follow the written chain, without caps; N, C: chain ends. Non-standard residues stand in square brackets, D forms with d. Residues, ends and D or L forms follow the SMILES beside them. *: point of attachment. Decanoyl(3R-OH) = CCCCCCC[C@@H](O)CC(=O)*; dBip = N[C@H](Cc1ccc(-c2ccccc2)cc1)C(=O)O; azaDab = NCCN(N[*:1])C(=O)[*:2]; dDab = NCC[C@@H](N)C(=O)O; Orn = NCCC[C@H](N)C(=O)O; dDap = NC[C@@H](N)C(=O)O; Dab = NCC[C@H](N)C(=O)O; Dap = NC[C@H](N)C(=O)O
Below, each of the compounds is paired with its reported CC50 value.
endpoint_label: CC50

compound	result_value
CCCCCCC[C@@H](O)CC(=O)N[C@H](CN)C(=O)N[C@H]1CCNC(=O)[C@H](CC(C)C)NC(=O)[C@H](CCN)NC(=O)[C@H](CCN)NC(=O)[C@H](CC(C)C)NC(=O)[C@@H](Cc2ccccc2)NC(=O)[C@H](CCN)NC1=O [compound 6442] ({Decanoyl(3R-OH)}-[dDap][Dab][Dab][dF]L[Dab][Dab]L; lactam 2-C)	> 128 µg/mL
CCCCCCC[C@@H](O)CC(=O)N[C@@H](CCN)C(=O)N[C@H]1CCNC(=O)[C@H](CC(C)C)NC(=O)[C@H](CCN)NC(=O)[C@H](CCN)NC(=O)[C@H](CC(C)C)NC(=O)[C@@H](Cc2ccccc2)NC(=O)[C@H](CCN)NC1=O [compound 8638] ({Decanoyl(3R-OH)}-[Dab][Dab][Dab][dF]L[Dab][Dab]L; lactam 2-C)	> 128 µg/mL
CCCCCCC[C@@H](O)CC(=O)N[C@H](CCN)C(=O)N[C@H]1CCNC(=O)[C@H](CC(C)C)NC(=O)[C@H](CCN)NC(=O)[C@H](CCCNC(=N)N)NC(=O)[C@H](CC(C)C)NC(=O)[C@@H](Cc2ccccc2)NC(=O)[C@H](CCN)NC1=O [compound 8733] ({Decanoyl(3R-OH)}-[dDab][Dab][Dab][dF]LR[Dab]L; lactam 2-C)	> 128 µg/mL
CCCCCCC[C@@H](O)CC(=O)N[C@H](CCN)C(=O)N[C@H]1CCNC(=O)[C@H](CC(C)C)NC(=O)[C@H](CCCN)NC(=O)[C@H](CCN)NC(=O)[C@H](CC(C)C)NC(=O)[C@@H](Cc2ccccc2)NC(=O)[C@H](CCN)NC1=O [compound 988] ({Decanoyl(3R-OH)}-[dDab][Dab][Dab][dF]L[Dab][Orn]L; lactam 2-C)	118 µg/mL
CCCCCCC[C@@H](O)CC(=O)N[C@H](CCN)C(=O)N[C@H]1CCNC(=O)[C@H](CC(C)C)NC(=O)[C@H](CCN)NC(=O)[C@H](CCNC(=O)[C@@H](N)CCCNC(=N)N)NC(=O)[C@H](CC(C)C)NC(=O)[C@@H](Cc2ccccc2)NC(=O)[C@H](CCN)NC1=O [compound 6654] ({Decanoyl(3R-OH)}-[dDab][Dab][Dab][dF]L[Dab](Arg)[Dab]L; lactam 2-C)	> 128 µg/mL
CCCCCCC[C@@H](O)CC(=O)N[C@H](CCN)C(=O)N[C@H]1CCNC(=O)[C@H](CC(C)C)NC(=O)[C@H](CCN)NC(=O)[C@H](CCCCN)NC(=O)[C@H](CC(C)C)NC(=O)[C@@H](Cc2ccccc2)NC(=O)[C@H](CCN)NC1=O [compound 992] ({Decanoyl(3R-OH)}-[dDab][Dab][Dab][dF]LK[Dab]L; lactam 2-C)	114 µg/mL
CCCCCCC[C@@H](O)CC(=O)N[C@H](CCN)C(=O)N[C@H]1CCNC(=O)[C@H](CC(C)C)NC(=O)[C@H](CCN)NC(=O)[C@H](CCN)NC(=O)[C@H](CC(C)C)NC(=O)[C@@H](Cc2ccccc2)NC(=O)[C@H](CCN)NC1=O [Octapeptin C4, octapeptin C4, reference compound] ({Decanoyl(3R-OH)}-[dDab][Dab][Dab][dF]L[Dab][Dab]L; lactam 2-C)	62 µg/mL
CCCCCCC[C@@H](O)CC(=O)N[C@H](CCN)C(=O)N[C@H]1CCNC(=O)[C@H](CC(C)C)NC(=O)[C@H](CCCNC(=N)N)NC(=O)[C@H](CCN)NC(=O)[C@H](CC(C)C)NC(=O)[C@@H](Cc2ccccc2)NC(=O)[C@H](CCN)NC1=O [compound 8643] ({Decanoyl(3R-OH)}-[dDab][Dab][Dab][dF]L[Dab]RL; lactam 2-C)	> 128 µg/mL
CCCCCCC[C@@H](O)CC(=O)N[C@H](CCN)C(=O)N[C@H]1CCNC(=O)[C@H](CC(C)C)NC(=O)[C@H](CN)NC(=O)[C@H](CCN)NC(=O)[C@H](CC(C)C)NC(=O)[C@@H](Cc2ccc(-c3ccccc3)cc2)NC(=O)[C@H](CCN)NC1=O [compound 5383] ({Decanoyl(3R-OH)}-[dDab][Dab][Dab][dBip]L[Dab][Dap]L; lactam 2-C)	> 128 µg/mL
CCCCCCC[C@@H](O)CC(=O)N[C@H](CCN)C(=O)N[C@H]1CCNC(=O)[C@H](CC(C)C)NC(=O)[C@H](CCN)NC(=O)[C@H](CCCN)NC(=O)[C@H](CC(C)C)NC(=O)[C@@H](Cc2ccccc2)NC(=O)[C@H](CCN)NC1=O [compound 991] ({Decanoyl(3R-OH)}-[dDab][Dab][Dab][dF]L[Orn][Dab]L; lactam 2-C)	107 µg/mL
CCCCCCC[C@@H](O)CC(=O)N[C@H](CCN)C(=O)N[C@H]1CCNC(=O)[C@H](Cc2c[nH]c3ccccc23)NC(=O)[C@H](CCN)NC(=O)[C@H](CCN)NC(=O)[C@H](CC(C)C)NC(=O)[C@@H](Cc2ccccc2)NC(=O)[C@H](CCN)NC1=O [compound 6509] ({Decanoyl(3R-OH)}-[dDab][Dab][Dab][dF]L[Dab][Dab]W; lactam 2-C)	> 128 µg/mL
CCCCCCC[C@@H](O)CC(=O)N[C@H](CCN)C(=O)N[C@H]1CCNC(=O)[C@H](CC(C)C)NC(=O)[C@H](CCN)NC(=O)[C@H](CN)NC(=O)[C@H](CC(C)C)NC(=O)[C@@H](Cc2ccccc2)NC(=O)[C@H](CCN)NC1=O [compound 990] ({Decanoyl(3R-OH)}-[dDab][Dab][Dab][dF]L[Dap][Dab]L; lactam 2-C)	87 µg/mL
CCCCCCC[C@@H](O)CC(=O)N[C@H](CCN)C(=O)N[C@H]1CCNC(=O)[C@H](CC(C)C)NC(=O)[C@H](CCN)NC(=O)N(CCN)NC(=O)[C@H](CC(C)C)NC(=O)[C@@H](Cc2ccccc2)NC(=O)[C@H](CCN)NC1=O [compound 8641] ({Decanoyl(3R-OH)}-[dDab][Dab][Dab][dF]L[azaDab][Dab]L; lactam 2-C)	> 128 µg/mL
